Tested on: R275C/beta1
Experiment: modulators of BK channel variants, profiling panel, selectivity assay, cell-based, U2OS BacMam, thallium flux, beta subunits (AID 1259406);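 further: initial slope of Thallos dye fluorescence rise after thallium is added; log ratio against the mean of 0.3% DMSO vehicle wells on the same plate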
Conditions: at 30 µM
Each item that follows carries a reported log fold change Tl+ flux.
Attribute Measured: log fold change Tl+ flux

Compound	Attribute Measured	Recorded Result
Cc1cc(Sc2nnc(N=CN(C)C)s2)c2ccccc2n1	log fold change Tl+ flux	0.0231
O=S(=O)(Cc1nc(C=Cc2cc(C(F)(F)F)cc(C(F)(F)F)c2)no1)c1ccc(Cl)cc1	log fold change Tl+ flux	0.0543
CN1CC(=O)N2[C@H](c3ccc4c(c3)OCO4)c3[nH]c4ccccc4c3C[C@@H]2C1=O	log fold change Tl+ flux	0.198
Cc1cc(Nc2ccc(F)cc2F)nc(SCc2c(Cl)cccc2Cl)n1	log fold change Tl+ flux	-0.0316
O=c1c(O[C@@H]2O[C@H](CO)[C@H](O)[C@H](O)[C@H]2O)c(-c2ccc(O)c(O)c2)oc2cc(O)cc(O)c12	log fold change Tl+ flux	-0.0329
CCOC(=O)c1ccc(-n2sccc2=O)cc1	log fold change Tl+ flux	0.179
COC(=O)c1ccc(C=Cc2cccc(Cl)c2)s1	log fold change Tl+ flux	-0.192
N[C@@H](C(=O)N[C@@H]1C(=O)N2C(C(=O)O)=C(CSc3cn[nH]n3)CS[C@H]12)c1ccc(O)cc1 (tested in a mixture with another compound)	log fold change Tl+ flux	0.00628
CCC(CO)NCCNC(CC)CO (stereo not given)	log fold change Tl+ flux	-0.0497
CC1CC2C3CCC4=CC(=O)C=CC4(C)C3(F)C(O)CC2(C)C1(O)C(=O)CO (stereo not given)	log fold change Tl+ flux	0.0289
CN(C)C=Nc1cc(Cl)c(-n2cccc2)cc1Oc1ccc(Cl)cc1	log fold change Tl+ flux	-0.0556
Cc1nc(-c2ccc(C(F)(F)F)cc2)sc1CO	log fold change Tl+ flux	0.0853
Cc1oc(S(=O)(=O)N2CCOCC2)cc1C(=O)Nc1ccc(F)cc1	log fold change Tl+ flux	0.0125
COc1cc(/C=C/c2ccc(O)cc2)cc(OC)c1	log fold change Tl+ flux	-0.11
CN1CCN(CC(=O)Nc2ccccc2Oc2ccccc2)CC1	log fold change Tl+ flux	0.00212
Nc1nc(Cl)nc2c1ncn2[C@@H]1O[C@H](CO)[C@@H](O)[C@H]1O	log fold change Tl+ flux	-0.0185
O=[N+]([O-])c1ccc(N2CCSCC2)cc1O	log fold change Tl+ flux	-0.0429
COc1ccnc(CS(=O)c2nc3cc(OC(F)F)ccc3[nH]2)c1OC (stereo not given)	log fold change Tl+ flux	0.0487
CCOC(=O)[C@@H](CCc1ccccc1)N[C@@H](C)C(=O)N1CCC[C@H]1C(=O)O	log fold change Tl+ flux	-0.00857
O=c1n(-c2ccccc2)c(=O)n2n1C1CCC2C1	log fold change Tl+ flux	0.0201

====

Assay: ovarian cancer cell viability with rucaparib, profiling panel, oncology-focused library, rucaparib conditional (AID 1508598)
Conditions: patient-derived ovarian cancer cells, CellTiter-Glo viability, 144 h; at 5 µM; OCI-P5x cells; with rucaparib 20 µM; stronger effect = lower value; 100% = cells with rucaparib alone
As shown below, each of these compounds has a reported viability value.

Compound	viability [%]
Nc1nc(Cl)nc2c1ncn2[C@H]1C[C@H](O)[C@@H](CO)O1	35.7
O=c1cc(N2CCOCC2)oc2c(-c3ccccc3)cccc12	96.2
CC(C)c1onc(-c2c(Cl)cccc2Cl)c1COc1ccc(/C=C/c2cccc(C(=O)O)c2)c(Cl)c1	99.6
C[C@@H](N)C1CCC(C(=O)Nc2ccncc2)CC1 (some centres undefined)	94.4
